test: melting temperature; fluorescence melt of hairpins on a sequencing array, two-state fit, raised by 9.35 °C to match UV melts; conditions: sodium 0.088 M
Mark 0 for Tm values under 50 °C, and 1 for everything at or above.

# Primary Sequence, Assigned Category
records = [
    ("GGCATGCGAAAGCAGCC (((.(((....))))))", 1),
    ("GAGGACCGAAAGGTGCTC (((.(((....))).)))", 1),
    ("GTTAGTGGAAACATTAAC ((((.((....)).))))", 0),
    ("GATCATAATCATGATC ((((((....))))))", 0),
    ("GGAAAGCGAAAGCTATCC (((.(((....))).)))", 0),
    ("GGGGCGGCGAAAGCCCCC (((..(((....))))))", 1),
    ("GCACCTGGAAACAGGCGC ((.((((....)))).))", 1),
    ("GGTTACGGAAACGTAGCC ((.((((....)))).))", 1),
]

Ask | # bool: Tm of GATCATCGGTATGATC ((((((....)))))) >= 50 °C
Reply | 0

Ask | Would you say AAGTTGAAAAACTT (((((....))))) shows Tm at minimum 50 °C?
Reply | 0

Ask | Dear colleague, could you confirm whether GGCGAACGAAAGTTGGCC (((.(((....))).))) has Tm at or above 50 °C?
Reply | 1

Ask | Is Tm at least 50 °C? Consider GGGGTTCGAAAGAAACCC (((.(((....))).)))
Reply | 1

Ask | Tell me whether Tm is at least 50 °C here: GGAAGCGAAAGCTGATCC ((((((....)))..)))
Reply | 0

Ask | I'd appreciate it if you could say whether GATCCGCCGACGGATC ((((((....)))))) has Tm at least equal to 50 °C.
Reply | 1

Ask | Dear colleague, could you confirm whether GATGTGGGAAACCATGTC ((..(((....)))..)) has Tm at or above 50 °C?
Reply | 0

----------
test: folding enthalpy; higher = less favourable; fluorescence melt of hairpins on a sequencing array, two-state fit; settings: sodium 0.088 M
Class field: derived from folding enthalpy; ranges low: < -30 kcal/mol; intermediate: ≥ -30 kcal/mol and < -20 kcal/mol; high: ≥ -20 kcal/mol

Ask | Could you tell me which band GTACCAGGAAACTGGCAC ((.((((....)))).)) belongs to?
Reply | intermediate

Ask | Lab note: sort GCAGAGCGAAAGCAATGC (((..((....))..))) into the matching folding enthalpy band.
Reply | intermediate

Ask | Could you tell me which band GCTAGGGGAAACTCTAGC (((((.(....).))))) belongs to?
Reply | low

----------
Listed sequences paired with reported Tm
assay: melting temperature; fluorescence melt of hairpins on a sequencing array, two-state fit, raised by 9.35 °C to match UV melts; conditions: sodium 0.088 M
Kindly report the value followed by its unit.

Ask | Look up Tm of GCAAAGGGAAACTTTTGC (((((.(....).))))) and report it.
Reply | 41 °C

Ask | Look up and report measured Tm for this entry: GGCTTCGGAAACGGAGTC (.((.((....)).)).)
Reply | 39.9 °C

Ask | Retrieve Tm measured for GACGGTGCGAAAGCAGTC (((..(((....)))))) and print it.
Reply | 39.9 °C

----------
experiment: folding enthalpy; higher = less favourable; fluorescence melt of hairpins on a sequencing array, two-state fit; conditions: sodium 0.088 M
Classify by measured folding enthalpy: 1.0 if it is equal to or exceeds -30 kcal/mol, 0.0 if it is smaller.

Solved cases below.
# Primary Sequence, Assigned Category
data = [
    ("GCCCGCCGAAAGGCTGGC (((.(((....))).)))", 0.0),
    ("GATCACAAAGTGATC ((((((...))))))", 0.0),
    ("GCCTTCGGAAACAAAGGC (((((.(....).)))))", 1.0),
    ("GATAAGGGAAACCTTGTC ((.((((....)))).))", 1.0),
    ("AGGAGGAAACTCCT (((((....)))))", 1.0),
]

# evaluate next
Ask | Please check the record GCAATGCGAAAGCAGCGC ((..(((....)))..)) and state if its folding enthalpy is at or above -30 kcal/mol.
Reply | 1.0

----------
test: folding enthalpy; higher = less favourable; fluorescence melt of hairpins on a sequencing array, two-state fit; settings: sodium 0.088 M
Readout Label: folding enthalpy (kcal/mol)
Your answer is read as kcal/mol, so omit the unit and give the number.

For orientation, consider the following solved cases.
# Primary Sequence, Units Of Measure, folding enthalpy
rows = [
    ("GTTGCGGGAAACCGCGAC ((.((((....)))).))", "kcal/mol", -31),
    ("GCCCGTGGAAACACGAGC ((.((((....)))).))", "kcal/mol", -24),
    ("GGGCGCGAAAGCGGTCCC ((((((....)))..)))", "kcal/mol", -11.7),
    ("GAGACGCCGAAAGGCCTC (((..(((....))))))", "kcal/mol", -8.48),
    ("GATCTCAGAGAGATC ((((((...))))))", "kcal/mol", -36),
    ("GGGCATCGAAAGATCCCC (((.(((....))).)))", "kcal/mol", -19.4),
    ("GCCTCCGCGAAAGCGGGC (((..(((....))))))", "kcal/mol", -5.39),
    ("GATCCAGACATGGATC ((((((....))))))", "kcal/mol", -39.9),
    ("GCTCTAGGAAACTAGAGC (((((((....)))))))", "kcal/mol", -44.6),
    ("GTCCTCGAAAGAGCGGAC ((((((....)))..)))", "kcal/mol", -22.1),
]

Ask | Consider the sequence GAATGGAAACATTC (((((....))))) . State its measured folding enthalpy.
Reply | -24.9

Ask | Report folding enthalpy for GATCACAACTGTGATC ((((((....))))))
Reply | -37.4

Ask | Please give measured folding enthalpy of the following entry: GCGGGATGCCGC ((((....))))
Reply | -22.6

Ask | Read off the recorded folding enthalpy for GAGATCGGAAACGGTCTC ((((.((....)).))))
Reply | -44.5

Ask | Look up and report measured folding enthalpy for this entry: GATCGGATGCCGATC ((((((...))))))
Reply | -19

Ask | Recall and state the measured folding enthalpy for GATCTTTTGTAAGATC ((((((....)))))) .
Reply | -31.1

----------
Measured Tm of individual entries
test: melting temperature; fluorescence melt of hairpins on a sequencing array, two-state fit, raised by 9.35 °C to match UV melts; settings: sodium 0.088 M
Use °C as the unit, but write only the number.

Look over these answered cases.
# Primary Sequence, Tm [°C]
records = [
    ("GTACGACCGAAAGGTTAC (((..(((....))))))", 19.8),
    ("GATCCTCCGAGGATC ((((((...))))))", 53.1),
    ("GACGCGGGAAACCACGTC ((((.((....)).))))", 52.1),
    ("GTAGGTGCGAAAGCATAC (((..(((....))))))", 31.1),
    ("GCCGTGCGAAAGCAGAGC ((..(((....)))..))", 51.9),
    ("GATCCAAGGCTGGATC ((((((....))))))", 48.9),
]

Ask | Give reported Tm value for GGACATGGAAACGTGTCC (((((.(....).)))))
Reply | 52.6

Ask | Give Tm for the following sequence: GATCTACGGGTAGATC ((((((....))))))
Reply | 51.1

Ask | Provide Tm value for the following sequence: GTTCGTGGAAACACGAGC (.(((((....))))).)
Reply | 52.7

Ask | Look up and report measured Tm for this entry: GCAACCGAAAGGTGATGC ((((((....)))..)))
Reply | 43.2

----------
In this section, each of the sequences is paired with its reported Tm.
assay: melting temperature; fluorescence melt of hairpins on a sequencing array, two-state fit, raised by 9.35 °C to match UV melts; details: sodium 0.088 M
Hi! Could you send only the number? It should be in °C, unit omitted.

# Primary Sequence, Tm (°C)
data = [
    ("GATCAATATATTGATC ((((((....))))))", 49.1),
]

Ask | Supply recorded Tm for GATCTGCGACCAGATC ((((((....)))))) here.
Reply | 46.6

Ask | Report Tm for TTCCGGAAACGGAA (((((....)))))
Reply | 48.7

Ask | Return Tm (reported value) for this sequence: GCCGGGGCGAAAGCCGGC (((..(((....))))))
Reply | 69

Origin of values: the array DNA melting data of Ke et al. (doi:10.1101/2024.01.08.574731)
